Tested on: recombinant hGPC3-His (human) (UniProt P51654)
Assay method text: Biacore SPR, antibody captured, hGPC3-His analyte, 1:1 model
Quantity: koff

Short answer for P1-B9 IgG variant of ARD-103 (antibody, V domains shown) VH: QVQLVESGAEVKKPGASVKVSCKASGYTFTDYEMHWVRQAPGQGLEWMGALDPKTGDTALSQKFKGRVTLTADKSTSTAYMELSSLTSEDTAVYYCTRFYSYTYWGQGTLVTVSS VL: DVVMTQSPLSLPVTPGEPASISCRSSQSLVHSNGNTYLQWYLQKPGQSPQLLIYKVSNRFSGVPDRFSGSGSGTDFTLKISRVEAEDVGVYYCGQVTHVPPTFGQGTKLEIKR : koff was 0.00026 s⁻¹
